Numbers sourced from patent US20180155407A1.

Measured EC50 hGlucagon R (cAMP formation), listed per entry.
target: human glucagon receptor (human, UniProt P47871 26-477); experiment: cell-based or functional assay
Sequence (P47871 26-477): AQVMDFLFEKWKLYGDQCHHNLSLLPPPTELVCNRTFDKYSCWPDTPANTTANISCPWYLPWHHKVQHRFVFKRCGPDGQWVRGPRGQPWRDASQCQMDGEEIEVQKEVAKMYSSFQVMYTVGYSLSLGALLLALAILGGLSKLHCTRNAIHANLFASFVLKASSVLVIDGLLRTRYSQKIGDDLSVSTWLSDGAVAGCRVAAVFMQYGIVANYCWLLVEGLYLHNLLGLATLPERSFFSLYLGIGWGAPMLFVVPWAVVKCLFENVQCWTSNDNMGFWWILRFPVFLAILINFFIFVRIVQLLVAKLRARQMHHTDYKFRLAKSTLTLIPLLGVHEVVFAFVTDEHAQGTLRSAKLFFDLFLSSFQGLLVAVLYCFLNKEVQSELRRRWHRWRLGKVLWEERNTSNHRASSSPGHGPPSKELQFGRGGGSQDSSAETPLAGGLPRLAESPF
Numbered stars: 1 amine (or outer) side, 2 acyl side, 3 side chain; on linkers, the order of the positions; unused ones are H or OH. Square brackets hold non-standard residues; d marks the D form. Side chains are listed from the residue outwards. Ends that are not written are not given here. * marks the point of attachment. γGlu = O=C(O)[C@H](CCC(=O)[*:2])N[*:1]; Palmitoyl = CCCCCCCCCCCCCCCC(=O)*; gAAA = not defined here; AEEA = NCCOCCOCC(=O)O; Aib = CC(C)(N)C(=O)O
Readout type: EC50 hGlucagon R (cAMP formation) (pM)

[[record]]
binder = "H[Aib]QGTFTSDLSKLK([γGlu-AEEA-gAAA-Palmitoyl])EKQRQ[Aib]EFIEWLKAGGHPS[Aib]KPPPK-NH2 (reading uncertain) [SEQ ID NO: 20]"
meas_value = 44

[[record]]
binder = "H[Aib]QGTFTSDLSKLK([γGlu-AEEA-gAAA-Palmitoyl])EKQRQ[Aib]EFIEWLKA[dA]GHPS[Aib]KPPPK-NH2 (reading uncertain) [SEQ ID NO: 21]"
meas_value = 69.9

[[record]]
binder = "H[Aib]QGTFTSDLSKLK([γGlu-AEEA-gAAA-Palmitoyl])EEQRQ[Aib]EFIEWLKAGGHPS[Aib]KPPPK-NH2 (reading uncertain) [SEQ ID NO: 22]"
meas_value = 108

[[record]]
binder = "H[Aib]QGTFTSDLSKLK([γGlu-AEEA-gAAA-Palmitoyl])EEQRQ[Aib]EFIEWLKA[dA]GHPS[Aib]KPPPK-NH2 (reading uncertain) [SEQ ID NO: 23]"
meas_value = 64.3

